src = paper PMC6009956

- assay.target: EGFR (Homo sapiens, UniProt P00533)
- Sequence (P00533 25-1210): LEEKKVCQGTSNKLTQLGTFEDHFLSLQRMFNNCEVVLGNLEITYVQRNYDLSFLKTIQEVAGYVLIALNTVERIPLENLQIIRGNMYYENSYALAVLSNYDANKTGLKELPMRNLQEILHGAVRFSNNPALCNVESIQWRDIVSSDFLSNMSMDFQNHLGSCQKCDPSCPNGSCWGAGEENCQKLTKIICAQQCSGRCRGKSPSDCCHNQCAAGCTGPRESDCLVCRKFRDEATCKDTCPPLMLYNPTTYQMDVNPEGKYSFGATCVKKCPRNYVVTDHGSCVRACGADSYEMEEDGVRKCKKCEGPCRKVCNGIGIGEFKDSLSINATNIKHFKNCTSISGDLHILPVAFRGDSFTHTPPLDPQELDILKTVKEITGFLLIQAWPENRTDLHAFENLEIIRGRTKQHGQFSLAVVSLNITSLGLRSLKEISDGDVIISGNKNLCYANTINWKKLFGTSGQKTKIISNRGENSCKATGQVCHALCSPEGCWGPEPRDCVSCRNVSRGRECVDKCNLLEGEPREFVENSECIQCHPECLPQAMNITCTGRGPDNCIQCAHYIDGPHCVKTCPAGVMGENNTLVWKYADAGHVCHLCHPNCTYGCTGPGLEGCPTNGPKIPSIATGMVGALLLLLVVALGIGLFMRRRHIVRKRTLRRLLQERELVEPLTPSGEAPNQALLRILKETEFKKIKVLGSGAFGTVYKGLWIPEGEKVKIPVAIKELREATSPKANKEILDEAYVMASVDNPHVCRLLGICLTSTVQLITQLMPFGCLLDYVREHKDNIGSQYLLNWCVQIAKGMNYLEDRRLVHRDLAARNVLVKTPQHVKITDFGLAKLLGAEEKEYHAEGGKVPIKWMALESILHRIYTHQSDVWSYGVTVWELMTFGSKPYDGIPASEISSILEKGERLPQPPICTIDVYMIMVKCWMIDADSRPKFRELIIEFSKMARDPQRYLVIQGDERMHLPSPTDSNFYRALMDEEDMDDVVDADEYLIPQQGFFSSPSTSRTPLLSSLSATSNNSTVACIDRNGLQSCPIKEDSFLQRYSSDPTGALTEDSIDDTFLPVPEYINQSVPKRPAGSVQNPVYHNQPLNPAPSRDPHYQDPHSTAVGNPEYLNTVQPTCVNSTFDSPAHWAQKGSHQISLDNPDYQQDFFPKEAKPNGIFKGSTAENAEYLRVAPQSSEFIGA
- assay.info: ADP-Glo kinase assay, EGFR
- Format: biochemical
- Parameters: purchased BPS Bioscience (assay run externally by the vendor)
- experimental.conditions: Log[nM] 1.0; Set1
Use True when the recorded EGFR % Activity Set1 is no lower than 70%; use False when it is lower.

{"compound": "Cc1ccccc1Nc1ncnc2[nH]ccc12 [Compound 15]", "group": "True"}
{"compound": "Cc1ccc(Nc2ncnc3[nH]ccc23)cc1 [Compound 9]", "group": "True"}
{"compound": "FC(F)(F)c1cccc(Nc2ncnc3[nH]ccc23)c1 [Compound 13]", "group": "False"}
{"compound": "c1ccc(Nc2ncnc3[nH]ccc23)cc1 [Compound 1]", "group": "True"}

# evaluate next
Inquiry: Test whether the compound Fc1cc(Nc2ncnc3[nH]ccc23)ccc1Cl [Compound 3] records EGFR % Activity Set1 of 70% or higher.
Reply text: False

* * *

- assay.target: EGFR (Homo sapiens, UniProt P00533)
- assay.info: ADP-Glo kinase assay, EGFR
- Type: biochemical
- Design: purchased BPS Bioscience (assay run externally by the vendor)
- experimental.conditions: Log[nM] 4.5; Set2
readout.type: EGFR % Activity Set2 (%)
Please state the figure in %; there is no need to write the unit.

Take a look at these entries with their results.
{"cpd.smiles": "Fc1cc(Nc2ncnc3[nH]ccc23)ccc1Cl", "assay.target": "EGFR (Homo sapiens, UniProt P00533)", "experimental.value": 0}
{"cpd.smiles": "FC(F)(F)c1cccc(Nc2ncnc3[nH]ccc23)c1", "assay.target": "EGFR (Homo sapiens, UniProt P00533)", "experimental.value": 1}
{"cpd.smiles": "c1ccc(Oc2ccc(Nc3ncnc4[nH]ccc34)cc2)cc1", "assay.target": "EGFR (Homo sapiens, UniProt P00533)", "experimental.value": 5}

response.value for Nc1nc(Nc2cccc(Br)c2)c2cc[nH]c2n1 (field: EGFR % Activity Set2) = 3

What the record says about Cc1cccc(Nc2ncnc3[nH]ccc23)c1 : EGFR % Activity Set2 is 0

* * *

- assay.target: aurora A kinase (AURKA) (Homo sapiens)
- Construct: purchased BPS Bioscience (assay run externally by the vendor)
- assay.info: ADP-Glo kinase assay, Aurora A
- Type: biochemical
- experimental.conditions: Log[nM] 2.0; Set3
Listing of recorded Aurora A % Activity Set3 by entry.
Unit % implied. Number only.

The measured Aurora A % Activity Set3 that Brc1cccc(Nc2ncnc3[nH]ccc23)c1 showed for aurora A kinase (AURKA) (Homo sapiens) is 105

# Clc1cccc(Nc2ncnc3[nH]ccc23)c1 with aurora A kinase (AURKA) (Homo sapiens): Aurora A % Activity Set3 is 107

Short answer on aurora A kinase (AURKA) (Homo sapiens) for Fc1cc(Nc2ncnc3[nH]ccc23)ccc1Cl , Aurora A % Activity Set3: 107

Entry Clc1ccc(Nc2ncnc3[nH]ccc23)cc1Br , tested on aurora A kinase (AURKA) (Homo sapiens), has a reported Aurora A % Activity Set3 of 105

Reported aurora A kinase (AURKA) (Homo sapiens) Aurora A % Activity Set3 for item Clc1ccccc1Nc1ncnc2[nH]ccc12 was 102

Tested on aurora A kinase (AURKA) (Homo sapiens), the item c1ccc(Oc2ccc(Nc3ncnc4[nH]ccc34)cc2)cc1 showed Aurora A % Activity Set3 equal to 98

* * *

Each entry below carries its reported EGFR % Activity Set2.
- assay.target: EGFR (Homo sapiens)
- assay.info: ADP-Glo kinase assay, EGFR
- Assay type: biochemical
- Parameters: purchased BPS Bioscience (assay run externally by the vendor)
- experimental.conditions: Log[nM] 5.0; Set2
# number only, unit % dropped from output

{"cpd.smiles": "COc1ccc(Nc2ncnc3[nH]ccc23)cc1", "assay.target": "EGFR (Homo sapiens)", "EGFR % Activity Set2 / %": 4}

Item: Cc1cccc(Nc2ncnc3[nH]ccc23)c1 | EGFR % Activity Set2: 0

Clc1ccccc1Nc1ncnc2[nH]ccc12 has a reported EGFR % Activity Set2 of 4

Notebook: Clc1ccc(Nc2ncnc3[nH]ccc23)cc1Br , EGFR % Activity Set2 read as 0

Field EGFR % Activity Set2 (entry Clc1cccc(Nc2ncnc3[nH]ccc23)c1 ) reads 0

EGFR % Activity Set2 for Clc1ccc(Nc2ncnc3[nH]ccc23)cc1 is 1

* * *

- assay.target: UniProtKB P00533
- assay.info: ADP-Glo kinase assay, EGFR
- Format: biochemical
- Parameters: purchased BPS Bioscience (assay run externally by the vendor)
- experimental.conditions: Log[nM] 0; Set2
EGFR % Activity Set2 under 60% gets True, anything at or over 60% gets False.

Solved cases below.
{"cpd.smiles": "Clc1ccc(Nc2ncnc3[nH]ccc23)cc1Br", "group": "True"}
{"cpd.smiles": "Clc1cccc(Nc2ncnc3[nH]ccc23)c1", "group": "False"}
{"cpd.smiles": "COc1ccc(Nc2ncnc3[nH]ccc23)cc1", "group": "False"}

Inquiry: In plain terms, does Brc1ccc(Nc2ncnc3[nH]ccc23)cc1 come in under 60% for EGFR % Activity Set2?
Reply text: False

Inquiry: Problem: For the compound Cc1cccc(Nc2ncnc3[nH]ccc23)c1 , is EGFR % Activity Set2 under 60%?
Reply text: False

* * *

- assay.target: aurora A kinase (AURKA) (Homo sapiens)
- Construct: purchased BPS Bioscience (assay run externally by the vendor)
- assay.info: ADP-Glo kinase assay, Aurora A
- Assay type: biochemical
- experimental.conditions: Log[nM] 4.5; Set2
readout.type: Aurora A % Activity Set2 (%)
Reply numerically in %, unit not repeated.

{"cpd.smiles": "Cc1ccccc1Nc1ncnc2[nH]ccc12", "experimental.value": 18}

Observed Aurora A % Activity Set2, aurora A kinase (AURKA) (Homo sapiens), Brc1cccc(Nc2ncnc3[nH]ccc23)c1 : 5

Record Clc1ccc(Nc2ncnc3[nH]ccc23)cc1Cl / aurora A kinase (AURKA) (Homo sapiens), Aurora A % Activity Set2 recorded as 12

Lab entry: aurora A kinase (AURKA) (Homo sapiens) assay, molecule c1ccc(Nc2ncnc3[nH]ccc23)cc1 , Aurora A % Activity Set2 = 12

Response field Aurora A % Activity Set2 (aurora A kinase (AURKA) (Homo sapiens)) for item FC(F)(F)c1cccc(Nc2ncnc3[nH]ccc23)c1 : 10

* * *

- assay.target: aurora A kinase (AURKA) (Homo sapiens)
- Construct: purchased BPS Bioscience (assay run externally by the vendor)
- Sequence (O14965 1-403): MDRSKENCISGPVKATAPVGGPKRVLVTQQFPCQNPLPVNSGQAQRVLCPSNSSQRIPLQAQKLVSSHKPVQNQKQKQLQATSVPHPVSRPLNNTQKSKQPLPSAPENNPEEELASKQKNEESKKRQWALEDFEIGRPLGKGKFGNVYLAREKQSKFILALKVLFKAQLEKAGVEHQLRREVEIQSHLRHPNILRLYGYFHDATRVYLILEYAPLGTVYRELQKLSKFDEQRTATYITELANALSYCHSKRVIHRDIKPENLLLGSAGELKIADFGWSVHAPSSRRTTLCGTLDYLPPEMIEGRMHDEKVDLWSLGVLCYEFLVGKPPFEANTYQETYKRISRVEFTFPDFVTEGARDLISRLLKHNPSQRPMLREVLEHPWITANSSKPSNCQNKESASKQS
- assay.info: ADP-Glo kinase assay, Aurora A
- Format: biochemical
- experimental.conditions: Log[nM] 1.0; Set3
readout.type: Aurora A % Activity Set3 (%)
Entry rule: numbers only, all in %.

Looking up Nc1nc(Nc2cccc(Br)c2)c2cc[nH]c2n1 , I found its Aurora A % Activity Set3 recorded as 111

Field Aurora A % Activity Set3 (entry Brc1ccc(Nc2ncnc3[nH]ccc23)cc1 ) reads 94

* * *

- assay.target: aurora A kinase (AURKA) (Homo sapiens, UniProt O14965)
- Construct: purchased BPS Bioscience (assay run externally by the vendor)
- assay.info: ADP-Glo kinase assay, Aurora A
- Assay type: biochemical
- experimental.conditions: Log[nM] 5.0; Set3
# note: boundary value 9% maps to label 0; Aurora A % Activity Set3 below it maps to label 1

The following molecules have reported results that may help.
{"cpd.smiles": "Brc1cccc(Nc2ncnc3[nH]ccc23)c1", "group": "label 1"}
{"cpd.smiles": "Cc1ccccc1Nc1ncnc2[nH]ccc12", "group": "label 0"}
{"cpd.smiles": "c1ccc(Cc2ccc(Nc3ncnc4[nH]ccc34)cc2)cc1", "group": "label 0"}
{"cpd.smiles": "Clc1cccc(Nc2ncnc3[nH]ccc23)c1", "group": "label 1"}

Inquiry: Is 9% strictly greater than the molecule's reported Aurora A % Activity Set3? molecule: Cc1cccc(Nc2ncnc3[nH]ccc23)c1
Reply text: label 1

* * *

Items are presented alongside their recorded EGFR % Activity Set2.
- assay.target: EGFR (Homo sapiens, UniProt P00533)
- assay.info: ADP-Glo kinase assay, EGFR
- Assay type: biochemical
- Design: purchased BPS Bioscience (assay run externally by the vendor)
- experimental.conditions: Log[nM] 1.5; Set2
Report as a plain number; the unit % is understood.

These recorded examples may help you get a feel for the data.
{"cpd.smiles": "Fc1cc(Nc2ncnc3[nH]ccc23)ccc1Cl", "EGFR % Activity Set2 / %": 16}
{"cpd.smiles": "Clc1ccc(Nc2ncnc3[nH]ccc23)cc1Cl", "EGFR % Activity Set2 / %": 16}
{"cpd.smiles": "Nc1nc(Nc2cccc(Br)c2)c2cc[nH]c2n1", "EGFR % Activity Set2 / %": 102}
{"cpd.smiles": "Cc1cccc(Nc2ncnc3[nH]ccc23)c1", "EGFR % Activity Set2 / %": 39}
{"cpd.smiles": "Clc1ccc(Nc2ncnc3[nH]ccc23)cc1", "EGFR % Activity Set2 / %": 61}
{"cpd.smiles": "Clc1ccccc1Nc1ncnc2[nH]ccc12", "EGFR % Activity Set2 / %": 83}

For c1ccc(Oc2ccc(Nc3ncnc4[nH]ccc34)cc2)cc1 the compound record lists EGFR % Activity Set2 as 77

Looking up FC(F)(F)c1cccc(Nc2ncnc3[nH]ccc23)c1 , I see its EGFR % Activity Set2 listed as 61

For COc1ccc(Nc2ncnc3[nH]ccc23)cc1 the compound record lists EGFR % Activity Set2 as 106

// EGFR % Activity Set2 lookup, compound = c1ccc(Nc2ncnc3[nH]ccc23)cc1 , result: 91

Record Cc1ccccc1Nc1ncnc2[nH]ccc12 . Reported EGFR % Activity Set2: 108

Quick note, EGFR % Activity Set2 for c1ccc(Cc2ccc(Nc3ncnc4[nH]ccc34)cc2)cc1 landed at 62

Noted for Brc1cccc(Nc2ncnc3[nH]ccc23)c1 : its EGFR % Activity Set2 reads 9
